Data origin: patent US20230151057A1

# System: Lactobacillus gasseri (FERM BP-11331)
# PROCEDURE_TEXT: Growth-promoting effect on Lactobacillus gasseri in modified MRS medium (particle count)
# Assay type: cell-based
# RUN_PARAMETERS: Example 1; peptide 0.25 mg/mL, 37° C., 18 hours; control without peptide = 100%
Ends that are not written are not given here.
MEASURE: Rate of increase (%)
Numbers only, in %.

SUBSTANCE | QUANTITY_UNIT | Rate of increase
Ile-Pro-Gly-Ile (IPGI; listed as Saccharomyces cerevisiae) | % | 119
Ile-Pro-Ile-Gln (IPIQ; listed as Saccharomyces cerevisiae) | % | 115
WDESRFQ (listed as Saccharomyces cerevisiae) [Trp-Asp-Glu-Ser-Arg-Phe-Gln] | % | 120
Leu-Pro-Val-Leu (LPVL; listed as Saccharomyces cerevisiae) | % | 113
AGPQTF | % | 126

// each substance listed below needs its Rate of increase
1. Leu-Pro-Trp-Gly (LPWG; listed as Saccharomyces cerevisiae)
2. SEYPPLG (listed as Saccharomyces cerevisiae) [Ser-Glu-Tyr-Pro-Pro-Leu-Gly]

1: 142; 2: 119
